test: n-octanol-PBS buffer distribution coefficient, log D of the compound at pH 7.4 after 24 hrs by HPLC analysis; assay type: physicochemical
In this section, each of the compounds is paired with its reported logD at 24 h.
Write no unit; give the number alone.

Take a look at these entries with their results.
Clc1ccc2c(NCCCNc3nccc(N4CCCC4)n3)ccnc2c1: 0.756
Clc1ccc2c(NCCCCCCCCCCNc3nccc(Cl)n3)ccnc2c1: 1.99
Clc1ccc2c(NCCNc3nccc(Cl)n3)ccnc2c1: 0.501
Clc1ccc2c(NCCCCCCCCCCCCNc3nccc(Cl)n3)ccnc2c1: 2.59
Clc1ccc2c(NCCCNc3nccc(Cl)n3)ccnc2c1: 0.657

Exercise: Which measured logD at 24 h value corresponds to Clc1ccc2c(NCCCNc3ccnc(Cl)n3)ccnc2c1 ?
Solution: 0.229

Exercise: Entry Clc1ccc2c(NCCCCCCCNc3nccc(Cl)n3)ccnc2c1 : reported logD at 24 h = ?
Solution: 1.16

Exercise: Consider the compound shown here: Clc1ccc2c(NCCCNc3ccnc(N4CCOCC4)n3)ccnc2c1 What is its recorded logD at 24 h?
Solution: 0.363

Exercise: Can you look up the measured logD at 24 h of Clc1ccc2c(NCCCNc3nccc(N4CCOCC4)n3)ccnc2c1 for me?
Solution: 0.257

Exercise: Given the entry Clc1ccc2c(NCCNc3ccnc(Cl)n3)ccnc2c1 , report its measured logD at 24 h.
Solution: 0.489

Exercise: Which logD at 24 h value belongs to Clc1ccc2c(NCCCNc3nccc(N4CCNCC4)n3)ccnc2c1 ?
Solution: 0.102

Exercise: So what does the record say about logD at 24 h for Clc1ccc2c(NCCCNc3ccnc(N4CCCCC4)n3)ccnc2c1 ?
Solution: 0.801

Exercise: // query logD at 24 h value for entry Clc1ccc2c(NCCCCNc3nccc(Cl)n3)ccnc2c1
Solution: 0.742

Exercise: Name the recorded logD at 24 h for Clc1ccc2c(NCCCCCCCCNc3nccc(Cl)n3)ccnc2c1 .
Solution: 1.51

###

experiment: Solubility of the compound in octanol at pH 7.4 by HPLC analysis; type: physicochemical
Classify as follows. Reported solubility greater than or equal to 2 µM: met. Reported solubility below: not met.

Reference set (5 entries):
Clc1ccc2c(NCCCNc3ccnc(N4CCOCC4)n3)ccnc2c1: not met
Clc1ccc2c(NCCCNc3nccc(N4CCNCC4)n3)ccnc2c1: not met
Clc1ccc2c(NCCNc3ccnc(Cl)n3)ccnc2c1: met
Clc1ccc2c(NCCCNc3ccnc(Cl)n3)ccnc2c1: not met
Clc1ccc2c(NCCCCCCCCNc3ccnc(Cl)n3)ccnc2c1: met

Exercise: Reported solubility at or above 2 µM? Clc1ccc2c(NCCCNc3nccc(Cl)n3)ccnc2c1
Solution: not met

Exercise: Given Clc1ccc2c(NCCCNc3nccc(N4CCCCC4)n3)ccnc2c1 , state whether its solubility is at least 2 µM.
Solution: not met

Exercise: Quick check, solubility >= 2 µM? Clc1ccc2c(NCCCCCCCCCCCCNc3nccc(Cl)n3)ccnc2c1
Solution: met

Exercise: Decide: is the reported value of solubility for Clc1ccc2c(NCCCNc3nccc(N4CCCC4)n3)ccnc2c1 equal to or greater than 2 µM?
Solution: not met

Exercise: Hello, I need to know if Clc1ccc2c(NCCCCCCCCNc3nccc(Cl)n3)ccnc2c1 has measured solubility not below 2 µM. Thanks!
Solution: met

###

assay: Solubility of the compound in octanol at pH 7.4 by HPLC analysis; type: physicochemical
Decision: solubility >= 2 µM yields label 1, all other cases yield label 0.

Solved entries (count: 5):
Clc1ccc2c(NCCCNc3nccc(N4CCOCC4)n3)ccnc2c1: label 0
Clc1ccc2c(NCCCOc3nccc(Cl)n3)ccnc2c1: label 1
Clc1ccc2c(NCCNc3nccc(Cl)n3)ccnc2c1: label 1
Clc1ccc2c(NCCCCCCCCCCNc3nccc(Cl)n3)ccnc2c1: label 1
Clc1ccc2c(NCCCCNc3nccc(Cl)n3)ccnc2c1: label 1

Exercise: Is the recorded value of solubility equal to or greater than 2 µM for this compound? Clc1ccnc(N2CCOCC2)n1
Solution: label 1

Exercise: # check: solubility of Clc1ccc2c(NCCCCCCCNc3nccc(Cl)n3)ccnc2c1 is greater than or equal to 2 µM
Solution: label 0
